target: S. pyogenes SKKanGAS, kanamycin survival, BacTiterGlo, 6 h; assay: S. pyogenes SKKanGAS kanamycin growth inhibitors – SKKanGAS strain, luminescence, dose confirmation, streptokinase promoter inhibitor project, dose response (AID 1902);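 note: lower survival reflects blocked streptokinase promoter driving kanamycin resistance gene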
The source made the active and inactive calls.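 Rule for the calls: active = EC50 no more than a set limit of log units above the highest dose; inactive = the rest.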
quantityKind: EC50

INSERT INTO results (molecule, measuredtarget, recordedmeasurement) VALUES
  ('Cc1csc(NC(=O)COCC(=O)O)c1-c1nc2ccccc2s1', 'S. pyogenes SKKanGAS, kanamycin survival, BacTiterGlo, 6 h', '6.45 µM'),
  ('CC/C(=C/c1ccccc1)c1cccc2[nH]c3c(OC)cccc3c12', 'S. pyogenes SKKanGAS, kanamycin survival, BacTiterGlo, 6 h', '2.49 µM'),
  ('COC(=O)c1ccc(N2CCN(C)CC2)c(NC(=O)COc2ccc(C)cc2)c1', 'S. pyogenes SKKanGAS, kanamycin survival, BacTiterGlo, 6 h', '> 15 µM (inactive)'),
  ('Cc1cc(Oc2ccc(Cl)cc2)nc(-c2ccccc2O)n1', 'S. pyogenes SKKanGAS, kanamycin survival, BacTiterGlo, 6 h', '> 15 µM (inactive)'),
  ('CCCn1nnnc1NC(=O)c1ccc2ccccc2c1', 'S. pyogenes SKKanGAS, kanamycin survival, BacTiterGlo, 6 h', '1.01 µM');

Per the record, `COc1ccc(NC(=O)CN(C)C(=O)/C=C/c2cn(-c3ccccc3)nc2-c2ccc(C)cc2)cc1` has EC50 of 8.68 µM

Per the record, `COc1cc2c(C#N)c(N3CCN(c4ccccc4OC)CC3)nc(N)c2c(N)n1` has EC50 of 4.67 µM

Per the record, Cc1cc(C)c2c(c1)NC(c1cc3c(cc1Br)OCO3)C1CC=CC21 (configuration not stated) has EC50 of 8.13 µM

Per the record, `CCn1cnc2sc(C(=O)Oc3cccc(C)c3)c(C)c2c1=O` has EC50 of 4.08 µM

Per the record, CN(CC1CCCO1)S(=O)(=O)c1ccc(C(=O)Nc2ccccc2F)cc1 (configuration not stated) has EC50 of > 15 µM (inactive)

Per the record, CC(C)C(=O)NC(c1cccs1)c1cc([N+](=O)[O-])c2cccnc2c1O (configuration not stated) has EC50 of 1.45 µM

Per the record, `N#C/C(=C(/O)COc1ccccc1)c1nc2ccccc2s1` has EC50 of 14.5 µM

Per the record, `COc1cc(O)c(CC=C(C)C)c(O)c1C(=O)CCc1ccc(O)cc1` has EC50 of 2.76 µM
